Biological target: recombinant human MMP-2 (Homo sapiens, UniProt P08253)
Sequence (P08253 110-660): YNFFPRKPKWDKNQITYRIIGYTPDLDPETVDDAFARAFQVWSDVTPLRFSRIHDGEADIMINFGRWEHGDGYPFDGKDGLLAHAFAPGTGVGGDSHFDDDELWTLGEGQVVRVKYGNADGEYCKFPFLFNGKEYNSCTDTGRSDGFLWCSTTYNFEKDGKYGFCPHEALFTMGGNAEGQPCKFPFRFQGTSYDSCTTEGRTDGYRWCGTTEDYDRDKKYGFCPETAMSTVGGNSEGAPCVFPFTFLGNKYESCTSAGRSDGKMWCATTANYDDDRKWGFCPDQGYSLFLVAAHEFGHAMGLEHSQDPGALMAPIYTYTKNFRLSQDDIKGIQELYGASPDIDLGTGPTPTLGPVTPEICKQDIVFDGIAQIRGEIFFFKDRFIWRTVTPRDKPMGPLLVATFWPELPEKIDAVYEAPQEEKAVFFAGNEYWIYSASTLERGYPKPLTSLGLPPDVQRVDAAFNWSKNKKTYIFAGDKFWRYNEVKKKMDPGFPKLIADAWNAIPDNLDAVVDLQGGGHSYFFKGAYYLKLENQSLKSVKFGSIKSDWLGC
Assay: MMP selectivity assay, MMP-2
Details: Table 2 selectivity profile
IC50 for assorted compounds

Here's what some known entries look like.
Cc1cc(COc2ccc(Sc3ccsc3C3NC(=O)NC3=O)cc2)ccn1 (stereo not shown)	100 to 1000 nM
O=C1NC(=O)C(c2sccc2Sc2ccc(OCc3cccc(CO)c3)cc2)N1 (stereo not shown)	1000 to 10000 nM
O=C1NC(=O)C(c2cnccc2Sc2ccc(OCc3cccc(CO)c3)cc2)N1 (stereo not shown)	1000 to 10000 nM

Record NC(=O)c1cccc(COc2ccc(Sc3ccncc3C3NC(=O)NC3=O)cc2)c1 (stereo not shown) . Reported IC50: 1000 to 10000 nM

Record O=C1NC(=O)C(c2ccncc2Sc2ccc(OCc3ccccc3CO)cc2)N1 (stereo not shown) . Reported IC50: 1000 to 10000 nM

Record O=C1NC(=O)C(c2sccc2Sc2ccc(OCc3ccccc3CO)cc2)N1 (stereo not shown) . Reported IC50: 1000 to 10000 nM

Record Cc1cc(COc2ccc(Sc3ccncc3C3NC(=O)NC3=O)cc2C)ccn1 (stereo not shown) . Reported IC50: 1000 to 10000 nM

Record Cc1cc(COc2ccc(Sc3ccncc3C3NC(=O)NC3=O)cc2)ccn1 (stereo not shown) . Reported IC50: 100 to 1000 nM

Record Cc1cc(COc2ccc(Sc3cnn(C)c3C3NC(=O)NC3=O)cc2)ccn1 (stereo not shown) . Reported IC50: 100 to 1000 nM

Record Cc1cc(COc2ccc(Sc3ccncc3C3NC(=O)NC3=O)c(F)c2)ccn1 (stereo not shown) . Reported IC50: 100 to 1000 nM
